// reported log10 MIC95 for each item listed
Tested on: Staphylococcus aureus
EXPERIMENTAL_PROTOCOL: Antibacterial activity against methicillin-resistant Staphylococcus aureus ATCC 43300 measured after 24 hrs
Format: functional
PROTOCOL_CONDITIONS: ATCC 43300, 24 h
# log10 transformed; quantity=MIC95; unit=µM

Item under review: H-AARIILRWRFR-NH2 . Reported log10 MIC95?
0.00

What do we get for H-AARIILRYRFR-NH2 ?
0.60

Others:
// lookup log10 MIC95 for H-AARIILRIRFR-NH2
0.30

Follow-up item: H-AARIILRGRFR-NH2
0.90

Param item: H-AARIILRTRFR-NH2
1.20

Then this substance: H-AARIILRRRFR-NH2
1.20

Another: H-AARIILRLRFR-NH2
0.30

----------
EXPERIMENTAL_PROTOCOL: Therapeutic index, ratio of MHC10 for hemolytic activity in human RBC to MIC95 against Candida parapsilosis cgmcc2.3989
Assay type: toxicity
PROTOCOL_CONDITIONS: human red blood cells (erythrocytes), read-out: TI
Documented selectivity ratio across a set of substances
Just the number, please, no unit after it.

Could you share which selectivity ratio value was measured for H-AARIILRLRFR-NH2 ?
50.8

// next item, selectivity ratio requested
Bench note: what selectivity ratio did H-AAKIILNPKFR-NH2 show?
2

----------
System: Candida albicans
EXPERIMENTAL_PROTOCOL: Antifungal activity against Candida albicans cgmcc2.2086 measured after 48 hrs in presence of ZnCl by broth microdilution method
Assay type: functional
PROTOCOL_CONDITIONS: cgmcc2.2086, 48 h
Reported MIC95 values follow for various substances
Give the value, in units of µM, as a plain number.

Solved entries (count: 4):
Lab request: please report MIC95 under test system Candida albicans for H-AARIILRIRFR-NH2
8

Field entry: H-AARIILRWRFR-NH2
8

Try H-AARIILRWFRR-NH2 next.
8

Now the same for H-AARIILRARFR-NH2
16

More entries:
# get_value(readout= MIC95, system= Candida albicans) for H-AARIILRFRFR-NH2
8

Do the same for H-AARIILRYRFR-NH2 please
64

Item: H-AARIILRLRFR-NH2
8

Now try H-AARRILRWIFR-NH2 .
8

----------
EXPERIMENTAL_PROTOCOL: Therapeutic index, ratio of MHC10 for hemolytic activity in human RBC to MIC95 against Staphylococcus epidermidis ATCC 12228
Assay type: toxicity
PROTOCOL_CONDITIONS: human red blood cells (erythrocytes), read-out: TI
Where a SMILES comes first, the peptide text is derived from it.
REPORTED_ENDPOINT: selectivity ratio

// lookup selectivity ratio for CC[C@H](C)[C@H](NC(=O)[C@H](CCCCN)NC(=O)[C@H](C)NC(=O)[C@H](C)N)C(=O)N[C@H](C(=O)N[C@@H](CC(C)C)C(=O)N[C@@H](CC(N)=O)C(=O)N1CCC[C@H]1C(=O)N[C@@H](CCCCN)C(=O)N[C@@H](Cc1ccccc1)C(=O)N[C@@H](CCCNC(=N)N)C(=O)N[C@@H](CS)C(=O)N[C@@H](CCCCN)C(=O)N[C@@H](C)C(=O)N[C@@H](C)C(=O)N[C@@H](Cc1ccccc1)C(=O)N[C@@H](CS)C(N)=O)[C@@H](C)CC (H-AAKIILNPKFRCKAAFC-NH2)
0.3

----------
EXPERIMENTAL_PROTOCOL: Therapeutic index, ratio of MHC10 for hemolytic activity in human RBC to MIC95 against Staphylococcus aureus ATCC 29213
Type: toxicity
PROTOCOL_CONDITIONS: human red blood cells (erythrocytes), read-out: TI
Where a SMILES comes first, the peptide text is derived from it.
REPORTED_ENDPOINT: selectivity ratio

Recorded selectivity ratio for CC[C@H](C)[C@H](NC(=O)[C@H](CCCCN)NC(=O)[C@H](C)NC(=O)[C@H](C)N)C(=O)N[C@H](C(=O)N[C@@H](CC(C)C)C(=O)N[C@@H](CC(N)=O)C(=O)N1CCC[C@H]1C(=O)N[C@@H](CCCCN)C(=O)N[C@@H](Cc1ccccc1)C(=O)N[C@@H](CCCNC(=N)N)C(=O)N[C@@H](CS)C(=O)N[C@@H](CCCCN)C(=O)N[C@@H](C)C(=O)N[C@@H](C)C(=O)N[C@@H](Cc1ccccc1)C(=O)N[C@@H](CS)C(N)=O)[C@@H](C)CC (H-AAKIILNPKFRCKAAFC-NH2) , please?
0.3

----------
EXPERIMENTAL_PROTOCOL: Therapeutic index, ratio of MHC10 for hemolytic activity in human RBC to MIC95 against Candida albicans cgmcc2.2086
Assay type: toxicity
PROTOCOL_CONDITIONS: human red blood cells (erythrocytes), read-out: TI
Where a SMILES comes first, the peptide text is derived from it.
REPORTED_ENDPOINT: selectivity ratio
Give a plain numeric answer without units written out.

Name the recorded selectivity ratio for CC[C@H](C)[C@H](NC(=O)[C@H](CCCCN)NC(=O)[C@H](C)NC(=O)[C@H](C)N)C(=O)N[C@H](C(=O)N[C@@H](CC(C)C)C(=O)N[C@@H](CC(N)=O)C(=O)N1CCC[C@H]1C(=O)N[C@@H](CCCCN)C(=O)N[C@@H](Cc1ccccc1)C(=O)N[C@@H](CCCNC(=N)N)C(=O)N[C@@H](CS)C(=O)N[C@@H](CCCCN)C(=O)N[C@@H](C)C(=O)N[C@@H](C)C(=O)N[C@@H](Cc1ccccc1)C(=O)N[C@@H](CS)C(N)=O)[C@@H](C)CC (H-AAKIILNPKFRCKAAFC-NH2) .
0.25

----------
EXPERIMENTAL_PROTOCOL: Cytotoxicity against mouse RAW264.7 cells assessed as cell viability at 2 to 64 uM measured after 18 to 24 hrs by MTT assay relative to control
Type: cell-based
PROTOCOL_CONDITIONS: RAW264.7 cells, read-out: Activity
Where a SMILES comes first, the peptide text is derived from it.
REPORTED_ENDPOINT: viability at up to 64 µM

Give its viability at up to 64 µM value. Item: CC[C@H](C)[C@H](NC(=O)[C@H](CCCCN)NC(=O)[C@H](C)NC(=O)[C@H](C)N)C(=O)N[C@H](C(=O)N[C@@H](CC(C)C)C(=O)N[C@@H](CC(N)=O)C(=O)N1CCC[C@H]1C(=O)N[C@@H](CCCCN)C(=O)N[C@@H](Cc1ccccc1)C(=O)N[C@@H](CCCNC(=N)N)C(=O)N[C@@H](CS)C(=O)N[C@@H](CCCCN)C(=O)N[C@@H](C)C(=O)N[C@@H](C)C(=O)N[C@@H](Cc1ccccc1)C(=O)N[C@@H](CS)C(N)=O)[C@@H](C)CC (H-AAKIILNPKFRCKAAFC-NH2)
90 to 100%

----------
EXPERIMENTAL_PROTOCOL: Therapeutic index, ratio of MHC10 for hemolytic activity in human RBC to MIC95 against Escherichia coli ATCC 25922
Format: toxicity
PROTOCOL_CONDITIONS: human red blood cells (erythrocytes), pooled result: one value given for 9 cell lines, strains, targets or settings, read-out: TI
Where a SMILES comes first, the peptide text is derived from it.
REPORTED_ENDPOINT: selectivity ratio
Provide a numeric answer; units are not to be included.

# input molecule: CC[C@H](C)[C@H](NC(=O)[C@H](CCCCN)NC(=O)[C@H](C)NC(=O)[C@H](C)N)C(=O)N[C@H](C(=O)N[C@@H](CC(C)C)C(=O)N[C@@H](CC(N)=O)C(=O)N1CCC[C@H]1C(=O)N[C@@H](CCCCN)C(=O)N[C@@H](Cc1ccccc1)C(=O)N[C@@H](CCCNC(=N)N)C(=O)N[C@@H](CS)C(=O)N[C@@H](CCCCN)C(=O)N[C@@H](C)C(=O)N[C@@H](C)C(=O)N[C@@H](Cc1ccccc1)C(=O)N[C@@H](CS)C(N)=O)[C@@H](C)CC (H-AAKIILNPKFRCKAAFC-NH2) ; wanted: its selectivity ratio
0.5

----------
Examples of substances with documented selectivity ratio follow.
EXPERIMENTAL_PROTOCOL: Therapeutic index, ratio of MHC10 for hemolytic activity in human RBC to MIC95 against Staphylococcus aureus ATCC 25923
Type: toxicity
PROTOCOL_CONDITIONS: human red blood cells (erythrocytes), read-out: TI

# lookup: selectivity ratio of H-AARIILRDRFR-NH2
2

----------
Recorded measurements of MHC10, one per entry
Test system: Erythrocyte
EXPERIMENTAL_PROTOCOL: Hemolytic activity in human RBC measured after 1 hr
Assay type: ADME, cell-based

Look at this substance and give its reported MHC10. H-AARRILRWIFR-NH2
> 128 µM

Please answer likewise for H-AARIILRGRFR-NH2
> 128 µM

Param item: H-AARIILRYRFR-NH2
> 128 µM

Also check H-AARIILRIRFR-NH2
128 µM

Same lookup for H-AARIILRNRFR-NH2 , please.
> 128 µM

Please look at the following substance next.
Which MHC10 is listed for H-AARIILRDRFR-NH2 ?
> 128 µM

Entry source: ChEMBL document CHEMBL4350958
